Tested on: phenylephrine-precontracted rat aortic rings
run.description: Isometric tension studies: relaxation of phenylephrine-precontracted rat aortic rings
condition.label: L-NAME (100 μM)
measurement.kind: EC50 (nM)
Express the result in nM but write the number alone.

Consider the molecule CCCOc1ccc(S(=O)(=O)N2CCC(CCO)CC2)cc1-c1nn2c(CCC)c(/C=N/O)c(C)c2c(=O)[nH]1 [Compound 1r] tested on phenylephrine-precontracted rat aortic rings; state its EC50.
0.935

====

study.target: human phosphodiesterase-5 (PDE5 enzyme isolated from human platelets) (Homo sapiens (Human))
run.description: PDE5 assay: formation of 5′GMP from cGMP (SPA)
measurement.kind: pIC50
As a rule, pIC50 stands for the negative log10 of the concentration, concentration in M.

In [3]: df
Out[3]:
                                   compound  obs_value
0  CCCc1c(/C=N/O)c(C)c2c(=O)[nH]c(-c3cc(S(=O)(=O)N4CCC(CCO[N+](=O)[O-])CC4)ccc3OCC)nn12       7.18

Give the value of pIC50 reported for the following: CCCc1c(/C=N/O)c(C)c2c(=O)[nH]c(-c3cc(S(=O)(=O)N4CCN(CCCO[N+](=O)[O-])CC4)ccc3OCC)nn12
7.92

Give the value of pIC50 reported for the following: CCCc1cc(C)c2c(=O)[nH]c(-c3cc(S(=O)(=O)N4CCN(CCCO)CC4)ccc3OCC)nn12
8.55

Give the value of pIC50 reported for the following: CCCc1c(CO)c(C)c2c(=O)[nH]c(-c3cc(S(=O)(=O)N4CCN(C)CC4)ccc3OCC)nn12
7.92

Give the value of pIC50 reported for the following: CCCc1c(C(O)CC#N)c(C)c2c(=O)[nH]c(-c3cc(S(=O)(=O)N4CCN(C)CC4)ccc3OCC)nn12 (centres unmarked)
8.82
